The origin of these recorded values is PubChem BioAssay (NCI).

# measurement_protocol: NCI Yeast Anticancer Drug Screen. Data for the rad50 strain (AID 155);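 also: 0% = growth of vehicle-only cultures of the same strain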
# test_settings: S. cerevisiae rad50 strain growth inhibition; at 5.0 µM (retest, dose inferred, filed as 0.5); active compounds read high
# Protocol: Growth inhibition of yeast strains with defined genetic alterations is measured as a screen for potential anti-cancer activity. Selected strains with alterations in DNA damage repair or cell cycle control were exposed to compounds and growth inhibition was measured relative to vehicle treated controls. The strain used in this assay is rad50
This is part of a sample that, as a whole, favours compounds with a hit. Of some 79,000 tested, about 15% had one in any assay.
The label depends only on growth inhibition: fulfilled if it is at least 20%, not fulfilled if it is smaller.

[[record]]
molecule = "CCCCOOC(=O)c1ccccc1C(=O)OOCCCC"
qualitative_label = "fulfilled"

[[record]]
molecule = "CCOC(=O)C1=C(C)/C(=C/c2[n-]c(C)c(C(=O)OCC)c2C)N=C1C.CCOC(=O)C1=C(C)/C(=C/c2[n-]c(C)c(C(=O)OCC)c2C)N=C1C.[Zn+2]"
qualitative_label = "not fulfilled"

[[record]]
molecule = "CC[C@@]1(O)C[C@H](OC2CC(N(C)C)C(O)C(C)O2)c2c(cc3c(c2O)C(=O)c2c(O)ccc(O)c2C3=O)[C@H]1C(=O)OC (stereo partly specified)"
qualitative_label = "fulfilled"

[[record]]
molecule = "O=C([CH-]C(=O)c1ccccc1)c1ccccc1.O=C([CH-]C(=O)c1ccccc1)c1ccccc1.[Nd+3].[OH-].[OH3+]"
qualitative_label = "fulfilled"

[[record]]
molecule = "[C-]#[O+].[C-]#[O+].[Mo].[N-]=Nc1ccc([N+](=O)[O-])cc1.[c-]1[c-][c-][cH-][c-]1"
qualitative_label = "not fulfilled"

[[record]]
molecule = "CC[PH+](CC)CC[S-].CC[PH+](CC)CC[S-].[Au+].[Au+]"
qualitative_label = "not fulfilled"

[[record]]
molecule = "c1cc2n[pH]nc2cn1 (stereo unspecified)"
qualitative_label = "not fulfilled"

[[record]]
molecule = "CCC[CH2][Pb]([CH2]CCC)([CH2]CCC)[n]1ccnc1"
qualitative_label = "fulfilled"

[[record]]
molecule = "CCOc1c(Br)cc(/C=C(\\C)[N+](=O)[O-])cc1OC"
qualitative_label = "not fulfilled"

[[record]]
molecule = "CCC[CH2][Sn]1([CH2]CCC)[O]CC(CN2CCCCC2)[O]1 (stereo unspecified)"
qualitative_label = "fulfilled"

[[record]]
molecule = "CC1=C2C(=CC(C)(C)[C@@H]2O)C(=O)[C@](C)(O)C12CC2"
qualitative_label = "fulfilled"

[[record]]
molecule = "O=c1s[se]c2ccccc12"
qualitative_label = "fulfilled"

[[record]]
molecule = "Cc1ccc2c(c1)N(CCN(CCCl)CCCl)c1c(ccc3ccccc13)S2"
qualitative_label = "not fulfilled"

[[record]]
molecule = "CCC(=O)O.[Ag]"
qualitative_label = "fulfilled"

[[record]]
molecule = "O=C1CCCC1Cl (stereo unspecified)"
qualitative_label = "not fulfilled"

[[record]]
molecule = "O=[C-]c1ccccc1[C-]=O.[Pd+2].c1ccc([PH+](c2ccccc2)c2ccccc2)cc1.c1ccc([PH+](c2ccccc2)c2ccccc2)cc1"
qualitative_label = "not fulfilled"

[[record]]
molecule = "NC1=NC(=O)N2CC12 (stereo unspecified)"
qualitative_label = "fulfilled"

[[record]]
molecule = "CCc1cc(C)cc2[n+]1CC=C2"
qualitative_label = "not fulfilled"

[[record]]
molecule = "CN1C(=O)C2(C)SSC1(C)C(=O)N2C"
qualitative_label = "fulfilled"

[[record]]
molecule = "C[C@]12CCC(O)CC1=CC[C@@H]1[C@@H]2CC[C@]2(C)C(=O)[C@H](n3ccnc3)C[C@@H]12 (stereo partly specified)"
qualitative_label = "fulfilled"

[[record]]
molecule = "O=[N+]([O-])c1c[c]([Hg][Cl])c(O)[c]([Hg][Cl])c1"
qualitative_label = "fulfilled"


###

# measurement_protocol: NCI Yeast Anticancer Drug Screen. Data for the mlh1 rad18 strain (AID 175)
# test_settings: S. cerevisiae mlh1 rad18 strain growth inhibition; at 50.0 µM (retest, dose inferred, filed as 5.0); active compounds read high
This is part of a sample that, as a whole, favours compounds with a hit. Of some 79,000 tested, about 15% had one in any assay. Active and inactive are the calls of the source. Rule as the data show it: active = growth inhibition above about 70%; inactive = the rest.
quantity: growth inhibition

[[record]]
compound = "O=S(=O)(F)c1cc(Cl)c(O)cc1Cl"
value_measured = "45% (inactive)"

[[record]]
compound = "CC1CCCC[N-]1.CC1CCCC[N-]1.N#C[S-].N#C[S-].[Cd] (stereo not drawn)"
value_measured = "39% (inactive)"

[[record]]
compound = "O=[N+]([O-])c1ccc([N+](=O)[O-])c2nsnc12"
value_measured = "97% (active)"

[[record]]
compound = "Oc1c(I)cc(I)cc1I"
value_measured = "92% (active)"

[[record]]
compound = "CC[C@@H](C)[C@@H]1NC(=O)C(NC(=O)C(CC(C)C)N(C)C(=O)C2CCCN2C(=O)C(C)O)C(C)OC(=O)C(Cc2ccc(OC)cc2)N(C)C(=O)C2CCCN2C(=O)C(CC(C)C)NC(=O)C(C)C(=O)C(C(C)C)OC(=O)C[C@H]1O (stereo partly drawn)"
value_measured = "98% (active)"

[[record]]
compound = "O=C(OCC(CCl)OC(=O)C(Cl)(Cl)Cl)C(Cl)(Cl)Cl (stereo not drawn)"
value_measured = "-53% (inactive)"

[[record]]
compound = "O=P(CCP(=O)(c1ccccc1)c1ccccc1)(c1ccccc1)c1ccccc1.[Cl][Sn]([Cl])([c]1ccccc1)[c]1ccccc1"
value_measured = "95% (active)"

[[record]]
compound = "CCCCCc1cc(O)c(CCCC)c(O)c1"
value_measured = "87% (active)"


###

# measurement_protocol: NCI Yeast Anticancer Drug Screen. Data for the mlh1 rad18 strain (AID 175)
# test_settings: S. cerevisiae mlh1 rad18 strain growth inhibition; at 5.0 µM (retest, dose inferred, filed as 0.5); active compounds read high
About 79,000 compounds went through this panel and 15% of them were active in at least one assay; those are over-represented in the sample as a whole.
The label depends only on growth inhibition: 1 (yes) if it is at least 10%, 0 (no) if it is smaller.

[[record]]
compound = "CC(=O)[O-].CC(=O)[O-].O=C([CH-]C(=O)c1ccccc1)c1ccccc1.[Nd+3].[OH3+]"
qualitative_label = "1 (yes)"

[[record]]
compound = "CSCCC([NH-])C(=O)O.CSCCC([NH-])C(=O)O.[Zn+2] (stereo not given)"
qualitative_label = "0 (no)"

[[record]]
compound = "C[C@]12CC[C@H](O)C[C@@H]1CC[C@@H]1[C@@H]2CC[C@]2(C)C(=O)/C(=C/O)C[C@@H]12"
qualitative_label = "0 (no)"

[[record]]
compound = "O=C(O)c1ccc([Se][Se]c2ccc(C(=O)O)cc2)cc1"
qualitative_label = "1 (yes)"

[[record]]
compound = "CNC1C(O)CC(OC2C/C=C(\\C)C/C(C)=C/C=C/CCC(C)CNC(=O)/C=C/C=C/C2C)OC1C (stereo not given)"
qualitative_label = "1 (yes)"

[[record]]
compound = "Nc1cc2[nH]cnc2c([Se])n1"
qualitative_label = "0 (no)"

[[record]]
compound = "N#Cc1cc([N+](=O)[O-])c(Cl)c([N+](=O)[O-])c1"
qualitative_label = "1 (yes)"

[[record]]
compound = "C[C@]12Cc3cn4ncnc4nc3CC1CC[C@@H]1[C@@H]2CC[C@]2(C)C(O)CC[C@@H]12 (stereo not given in full)"
qualitative_label = "1 (yes)"

[[record]]
compound = "CCC[CH2][Sn]1([CH2]CCC)[O]C(=O)c2ccc(C)cc2[O]1"
qualitative_label = "1 (yes)"

[[record]]
compound = "COc1cc(C2c3[nH]c4ccccc4c3[C@@H](Nc3ccc(C#N)cc3)[C@H]3COC(=O)N23)cc(OC)c1O (stereo not given in full)"
qualitative_label = "1 (yes)"

[[record]]
compound = "COC(CNS(=O)(=O)c1ccccc1)[CH2][Hg][O]C(C)=O (stereo not given)"
qualitative_label = "0 (no)"

[[record]]
compound = "C/C(=N\\NC(=S)N1CC2CCC(CC2)C1)c1nccs1"
qualitative_label = "1 (yes)"

[[record]]
compound = "[Cl][Sn]([Cl])([c]1ccccc1)[c]1ccccc1.c1ccc2nc(-c3ccc4ccccc4n3)ccc2c1"
qualitative_label = "1 (yes)"

[[record]]
compound = "Nc1ccc(Br)cc1C(=O)c1ccccc1"
qualitative_label = "1 (yes)"

[[record]]
compound = "C[C@]12C/C(=C/O)C(=O)C(O)=C1CC[C@@H]1C2CC[C@@]2(C)C1CC[C@@H]2O (stereo not given in full)"
qualitative_label = "0 (no)"

[[record]]
compound = "CC(=O)OC1CCC2C3CCC4C(F)C(=O)C(F)(F)CC4(C)C3CCC12C (stereo not given)"
qualitative_label = "0 (no)"

[[record]]
compound = "CC1=C(N2CC2)C(=O)c2nc3n(c2C1=O)CCC3OC(=O)CCl (stereo not given)"
qualitative_label = "1 (yes)"

[[record]]
compound = "COC12C(COC(N)=O)C3=C(C(=O)C(C)=C(N)C3=O)N1CC1C2N1C (stereo not given)"
qualitative_label = "1 (yes)"

[[record]]
compound = "CN1C2CCC1c1c([nH]c3ccccc13)C2 (stereo not given)"
qualitative_label = "0 (no)"

